These data points were gathered from ChEMBL document CHEMBL4152256.

Assay: Selectivity index, ratio of CC50 for human HepG2A16 cells by MTT assay to IC50 for multidrug-resistant Plasmodium falciparum FCR-3
Assay type: toxicity
Would you kindly list Ratio CC50/IC50 for each of these molecules?

Given the molecule N#Cc1ccc(N2CCC(NCCC(O)c3ccc(F)c4ccccc34)CC2)c(C(F)(F)F)c1 (single isomer, unassigned; (+)) , what is its reported Ratio CC50/IC50? 29

Next record, please: OC(CCN1CCN(c2ccccc2C(F)(F)F)CC1)c1ccc(F)c2ccccc12 (stereo in doubt; 55) 183

Another molecule to check: O=[N+]([O-])c1ccc(N2CCC(NCCC(O)c3ccc(F)c4ccccc34)CC2)c(C(F)(F)F)c1 (stereo in doubt; 8) 38

Repeat for the following molecule: O=[N+]([O-])c1ccc(N2CCC(NCCC(O)c3ccc(F)c4ccccc34)CC2)c(C(F)(F)F)c1 (single isomer, unassigned; (+)) 201
